Item-by-item account of viability at 48 h, 10 µM
- PROTOCOL SUMMARY: Cytotoxicity against M-CSF induced C57BL/6J mouse BMMC cells assessed as cell viability at 10 uM incubated for 48 hrs by CCK-8 assay relative to control
- Format: toxicity, cell-based
- CONDITION: read-out: Activity

Worked cases, answers included:
> print(dat)
                                smiles.repr  observed.measurement
1  C[C@H](CO)[C@H]1CC[C@H]2[C@@H]3CC=C4C(C)(C)c5nccnc5C[C@]4(C)[C@H]3CC[C@]12C                ≥ 100%
2  C[C@H](C(=O)O)[C@H]1CC[C@H]2[C@@H]3CC=C4C(C)(C)c5nnsc5C[C@]4(C)[C@H]3CC[C@]12C                ≥ 100%

Qu. Quick one: viability at 48 h, 10 µM for "CCCNC(=O)[C@@H](C)[C@H]1CC[C@H]2[C@@H]3CC=C4C(C)(C)c5nnsc5C[C@]4(C)[C@H]3CC[C@]12C" ?
Ans. ≥ 100%
